Where do these numbers come from? They come from patent US12344623B2.

# study_system: human A2B receptor (Homo sapiens, UniProt P29275)
# Construct: expressed in transfected cells; host or cells: HEK293
# Sequence (P29275 whole entry): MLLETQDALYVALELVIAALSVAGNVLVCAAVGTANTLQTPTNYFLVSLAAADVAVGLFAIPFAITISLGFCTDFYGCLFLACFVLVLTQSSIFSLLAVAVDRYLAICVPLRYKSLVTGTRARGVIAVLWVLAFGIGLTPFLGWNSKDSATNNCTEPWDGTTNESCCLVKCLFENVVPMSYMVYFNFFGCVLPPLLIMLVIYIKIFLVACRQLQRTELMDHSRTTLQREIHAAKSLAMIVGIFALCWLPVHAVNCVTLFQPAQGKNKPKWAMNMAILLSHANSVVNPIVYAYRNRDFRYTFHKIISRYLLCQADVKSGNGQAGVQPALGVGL
# assay_procedure: Functional A2B receptor activity, recombinant HEK293 cells, cAMP (HTRF), agonist NECA
# Assay type: cell-based
# conditions: read-out: Functional A2B receptor activity, HEK293, cAMP, IC50
measured_endpoint: IC50

> print(dat)
                                    compound     result
 1  COc1ncc(C2=CCOCC2)c2sc(NC(=O)N3CCC(N4C(=O)CNC4=O)CC3)nc12 [Compound 131]    < 10 nM
 2  COc1ncc(-c2ccccc2)c2sc(NC(=O)N3CC[C@H](CN)C3)nc12 [Compound 1]   < 100 nM
 3  COc1ncc(C2=CCOC2)c2sc(NC(=O)N3CCC4(CCCOC4)C3)nc12 (stereo not shown) [Compound 45]   < 100 nM
 4  COc1ncc(C2=CCOCC2)c2sc(NC(=O)c3c[nH]c(-c4ccccn4)n3)nc12 [Compound 162]    < 10 nM
 5  COc1ncc(-c2cccc(Oc3cnn(C)c3)c2)c2sc(NC(=O)N3CCC4(CCOCC4)C3)nc12 [Compound 147]    < 10 nM
 6  COc1ncc(C2=CCOCC2)c2sc(NC(=O)c3cnn(-c4ccncc4)c3)nc12 [Compound 157]    < 10 nM
 7  COc1ncc(-c2ccccc2)c2sc(NC(=O)c3ccc(-c4nnn[nH]4)cc3)nc12 [Compound 110]   < 100 nM
 8  COc1ncc(-c2cnn(Cc3cccnc3)c2)c2sc(NC(=O)c3ccc(C(=O)O)cc3)nc12 [Compound 115]    < 10 nM
 9  COc1ncc(C2=CCOCC2)c2sc(NC(=O)N3CCC4(CCCNC4)C3)nc12 (stereo not shown) [Compound 102]   < 100 nM
10  COc1cnc(N2CCOCC2)c2sc(NC(=O)N3CCC4(CCN(C)C4=O)CC3)nc12 [drawing 186, reference compound]  > 1000 nM
11  COc1ncc(C2=CCOCC2)c2sc(NC(=O)Nc3ccc(N4CCCC4=O)cc3)nc12 [Compound 89]   < 100 nM
12  COc1ncc(-c2cnn(CC3CCCCO3)c2)c2sc(NC(=O)N3CCC4(CCOCC4)C3)nc12 (stereo not shown) [Compound 84]   < 100 nM
13  COc1ncc(-c2cnn(C(F)F)c2)c2sc(NC(=O)N3CCC4(CCOCC4)C3)nc12 [Compound 79]   < 100 nM
14  COCCn1cc(C(=O)Nc2nc3c(OC)nc(F)c(C4CCOCC4)c3s2)cn1 [Compound 22]    < 10 nM
15  COc1ncc(C2=CCOCC2)c2sc(NC(=O)N3CCC4(CCCOC4)C3)nc12 (stereo not shown) [Compound 15]    < 10 nM
16  COc1ncc(-c2cnn(Cc3ccccn3)c2)c2sc(NC(=O)N3CCC4(CCOCC4)C3)nc12 [Compound 69]    < 10 nM

====

# study_system: human A1 receptor (Homo sapiens, UniProt P30542)
# Construct: expressed in transfected cells; host or cells: CHO
# Sequence (P30542 1-326): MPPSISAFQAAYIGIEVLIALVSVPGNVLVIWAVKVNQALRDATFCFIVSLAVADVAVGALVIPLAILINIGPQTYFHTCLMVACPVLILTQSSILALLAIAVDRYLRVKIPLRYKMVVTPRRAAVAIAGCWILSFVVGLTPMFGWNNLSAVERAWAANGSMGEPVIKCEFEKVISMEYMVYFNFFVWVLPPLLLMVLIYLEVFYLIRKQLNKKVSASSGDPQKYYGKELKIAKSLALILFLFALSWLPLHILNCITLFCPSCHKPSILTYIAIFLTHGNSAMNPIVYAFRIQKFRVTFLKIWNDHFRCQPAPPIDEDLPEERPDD
# assay_procedure: Functional A1 receptor activity, recombinant CHO cells, cAMP (HTRF), forskolin, agonist CPA
# Type: cell-based
# conditions: recombinant CHO cells, forskolin, agonist CPA; read-out: Functional A1 receptor activity, CHO, cAMP, IC50
measured_endpoint: IC50

> print(dat)
                              smiles.record  measured.endpoint     result
1  COc1ncc(-c2ccccc2)c2sc(NC(=O)N3CCC(N4C(=O)CNC4=O)CC3)nc12               IC50  < 1000 nM
2  CNc1cccc(-c2cnc(OC)c3nc(NC(=O)N4CCC5(CCOCC5)C4)sc23)c1               IC50  > 1000 nM
3  COc1ncc(C2=CCOCC2)c2sc(NC(=O)c3ccc(C(=O)O)cc3)nc12               IC50  < 1000 nM
4  COc1nc(F)c(N2CCOCC2)c2sc(NC(=O)c3ccc(-c4nnn[nH]4)cc3)nc12               IC50  > 1000 nM
